test: in vivo; details: Beagle, dog, iv, 0.3 mg/kg
parameter: AUC(0-t)

Q) Request the reported AUC(0-t) associated with `CO[C@@H](C(=O)NC1CCNCC1)c1ccccc1`
A) 3.44 µM·h

* * *

// reported H37Rv % Inhibition at 500 nM per item
test system: H37Rv; assay: microbe, parasite or virus in culture; type: cell-based, M. tuberculosis; details: 0.5 µM
Answer with a number only, understood to be in %.

Illustrative cases are given below, each with its answer.
{"columns": ["compound", "H37Rv % Inhibition at 500 nM, %"],
 "data": [
  ["O=C(Nc1cccnc1)[C@H](O)c1ccccc1 [Compound 1055]", 52],
  ["O=C(NC1CCN(Cc2ccccc2)CC1)C(O)(c1ccccc1)c1ccccc1 [Compound 1021]", 74],
  ["CN1CCCC(NC(=O)C(O)(c2ccccc2)c2ccccc2)C1 (stereo in doubt) [Compound 1032]", 72],
  ["CN1CCCC(NC(=O)[C@H](O)c2ccccc2)C1 (stereo in doubt) [Compound 1045]", 66]
]}

Now for the compound whose H37Rv % Inhibition at 500 nM we want.
Q) For the compound CN1CCC(OC(=O)C(O)c2ccccc2)CC1 (stereo in doubt) [Compound 1047] , what H37Rv % Inhibition at 500 nM is on record?
A) 68

Values compiled from patent US10207993B2.
